All figures here come from paper PMC10776578.

System: His-TRAF6_310-522
testMethodNotes: Peptide array, TRAF6 binding
Design: species or system human; key: +: Interaction with TRAF6 or TRAF2 isindicated according to the results shown in Figure 1c.; -: Interaction with TRAF6 or TRAF2 isindicated according to the results shown in Figure 1c
measurementContext: immobilized peptide, 10 µg per mL His-TRAF6, 4 h RT; two independent experiments
experimentalReadout: T6 interaction (peptide array)

- substance: "… GDDDDPHGPVQLSYYD [peptide 8, LMP1 371-386 (16mer)]"
  recordedMeasurement: "+"
- substance: "DDSLPHPQQATDDSGHESDSNSNEGRHHLL [peptide 6, LMP1 198-227]"
  recordedMeasurement: "-"
- substance: "GSNTAAPVQETLHGCQPVTQEDGKESRISV [peptide 4, CD40 244-273]"
  recordedMeasurement: "-"
- substance: "GSNTAAAVAEALHGCQPVTQEDGKESRISV [peptide 5, CD40 244-273, A250xAxA]"
  recordedMeasurement: "-"
- substance: "KAEAQAINFPDDLPGSNTAAPVQETLHGCQ [peptide 3, CD40 230-259, A231xAxA]"
  recordedMeasurement: "-"
- substance: "… GDDDDPHGPVQLSAAD [peptide 9, LMP1 371-386, A384A385]"
  recordedMeasurement: "-"
- substance: "PHLPTLLLGSSGSGGDDDDPHGPVQLSYYD [peptide 11, LMP1 357-386 (30mer)]"
  recordedMeasurement: "+"
- substance: "2: CD40 230-259, A250xAxA (KQEPQEINFPDDLPGSNTAAAVAEALHGCQ; UniProt P25942 230-259, looked up, variant P250A Q252A T254A) [compound 2]"
  recordedMeasurement: "+"
- substance: "PHLPTLLLGSSGSGGDDDDPHGAVALAYYD [peptide 12, LMP1 357-386, A379xAxA]"
  recordedMeasurement: "-"
- substance: "KQEPQEINFPDDLPGSNTAAPVQETLHGCQ [peptide 1, CD40 amino acids 230-259]"
  recordedMeasurement: "+"
